- procedure summary: Cynomolgus monkey plasma pharmacokinetics
- test settings: male, iv, 4.37 mg/kg, Cl, mean of 3 monkeys, 4.37 mg/kg i.v. bolus
Where a name gives a salt, the structure may show the parent alone.
property label: clearance

### Prompt Read the entry Cc1ccc(C(=O)Nc2ccc(S(=O)(=O)O)c3cc(S(=O)(=O)O)cc(S(=O)(=O)O)c23)cc1NC(=O)c1cccc(NC(=O)Nc2cccc(C(=O)Nc3cc(C(=O)Nc4ccc(S(=O)(=O)O)c5cc(S(=O)(=O)O)cc(S(=O)(=O)O)c45)ccc3C)c2)c1 [suramin, Suramin sodium salt] and write its reported clearance.
### Response 1.9 mL/h/kg

###

- procedure summary: Cynomolgus monkey plasma pharmacokinetics
- test settings: male, iv, 4.37 mg/kg, AUC0-last, monkey P101, 4.37 mg/kg i.v. bolus
Counter-ions that a name gives are not always drawn.
property label: AUC(0-t)

### Prompt Read the entry Cc1ccc(C(=O)Nc2ccc(S(=O)(=O)O)c3cc(S(=O)(=O)O)cc(S(=O)(=O)O)c23)cc1NC(=O)c1cccc(NC(=O)Nc2cccc(C(=O)Nc3cc(C(=O)Nc4ccc(S(=O)(=O)O)c5cc(S(=O)(=O)O)cc(S(=O)(=O)O)c45)ccc3C)c2)c1 [suramin, Suramin sodium salt] and write its reported AUC(0-t).
### Response 1660 µg·h/mL

###

- procedure summary: Cynomolgus monkey plasma pharmacokinetics
- test settings: male, iv, 4.37 mg/kg, Vdss, monkey P101, 4.37 mg/kg i.v. bolus
Counter-ions that a name gives are not always drawn.
property label: Vd (L/kg)
Report the value in L/kg with no unit label.

### Prompt Read the entry Cc1ccc(C(=O)Nc2ccc(S(=O)(=O)O)c3cc(S(=O)(=O)O)cc(S(=O)(=O)O)c23)cc1NC(=O)c1cccc(NC(=O)Nc2cccc(C(=O)Nc3cc(C(=O)Nc4ccc(S(=O)(=O)O)c5cc(S(=O)(=O)O)cc(S(=O)(=O)O)c45)ccc3C)c2)c1 [suramin, Suramin sodium salt] and write its reported Vd.
### Response 0.176

###

- measurement target: CYP3A4 (Homo sapiens, UniProt P08684)
- Sequence (P08684 whole entry): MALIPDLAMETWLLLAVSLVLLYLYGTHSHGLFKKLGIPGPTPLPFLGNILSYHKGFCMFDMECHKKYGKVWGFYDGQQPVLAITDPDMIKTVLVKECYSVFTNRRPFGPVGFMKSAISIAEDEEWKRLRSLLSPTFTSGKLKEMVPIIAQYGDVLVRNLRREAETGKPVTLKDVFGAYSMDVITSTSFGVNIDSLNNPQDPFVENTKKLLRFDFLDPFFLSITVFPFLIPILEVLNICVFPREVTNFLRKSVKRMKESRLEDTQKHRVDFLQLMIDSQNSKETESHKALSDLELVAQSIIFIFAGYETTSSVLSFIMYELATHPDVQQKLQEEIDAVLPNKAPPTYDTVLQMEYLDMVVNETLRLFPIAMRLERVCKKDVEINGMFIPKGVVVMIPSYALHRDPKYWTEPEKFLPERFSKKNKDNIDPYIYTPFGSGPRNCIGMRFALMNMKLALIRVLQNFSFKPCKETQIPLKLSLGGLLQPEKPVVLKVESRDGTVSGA
- procedure summary: in vitro
- test settings: human microsomes, probe marker substrate cocktail, 1′-hydroxylation (CYP3A4)
Structures can show the parent of a compound that is named as a salt.
property label: inhibition at 10 min, 30 µM (%)
Report the value in % with no unit label.

### Prompt Read the entry Cc1ccc(C(=O)Nc2ccc(S(=O)(=O)O)c3cc(S(=O)(=O)O)cc(S(=O)(=O)O)c23)cc1NC(=O)c1cccc(NC(=O)Nc2cccc(C(=O)Nc3cc(C(=O)Nc4ccc(S(=O)(=O)O)c5cc(S(=O)(=O)O)cc(S(=O)(=O)O)c45)ccc3C)c2)c1 [suramin, Suramin sodium salt] and write its reported inhibition at 10 min, 30 µM.
### Response 16

###

- procedure summary: Cynomolgus monkey plasma pharmacokinetics
- test settings: male, iv, 4.37 mg/kg, Vdss, mean of 3 monkeys, 4.37 mg/kg i.v. bolus
Counter-ions that a name gives are not always drawn.
property label: Vd (L/kg)
Report the value in L/kg with no unit label.

### Prompt Read the entry Cc1ccc(C(=O)Nc2ccc(S(=O)(=O)O)c3cc(S(=O)(=O)O)cc(S(=O)(=O)O)c23)cc1NC(=O)c1cccc(NC(=O)Nc2cccc(C(=O)Nc3cc(C(=O)Nc4ccc(S(=O)(=O)O)c5cc(S(=O)(=O)O)cc(S(=O)(=O)O)c45)ccc3C)c2)c1 [suramin, Suramin sodium salt] and write its reported Vd.
### Response 0.199
